Every entry's value here was drawn from patent US11753399B2.

Test system: HIV-IIIb
measurement_protocol: Test A: Antiviral Assay in MT4 Cells
Type: cell-based, HIV-1
setup_conditions: Human immunodeficiency virus 1, MT4, 120 h; inhibition of virus-induced cell killing, from dose response curve at 0.01 μM (10 nM); MT-4 cells, HIV-IIIb, 5 days; values normalized to 100%; read-out: % inhibition at 0.01 μM
# Lookup of reported inhibition at 0.01 µM keyed by entry

{"smiles_string": "Cn1nc(NS(=O)(=O)C2(C)CC2)c2c(Cl)ccc(-c3ccc(C#CC(C)(C)S(=O)(=O)C4CC4)nc3[C@H](Cc3cc(F)cc(F)c3)NC(=O)Cn3nc(C(F)F)c4c3C(F)(F)[C@@H]3C[C@H]43)c21", "study_system": "HIV-IIIb", "reading_unit": "%", "inhibition at 0.01 µM": 89}
{"smiles_string": "CC(C)(C#Cc1ccc(-c2ccc(Cl)c3c(NS(=O)(=O)C4CC4)nn(C4COC4)c23)c([C@H](Cc2cc(F)cc(F)c2)NC(=O)Cn2nc(C(F)F)c3c2C(F)(F)[C@@H]2C[C@H]32)n1)S(=O)(=O)C1CC1", "study_system": "HIV-IIIb", "reading_unit": "%", "inhibition at 0.01 µM": 100}
{"smiles_string": "CC(C)(C#Cc1ccc(-c2ccc(Cl)c3c(NS(C)(=O)=O)nn(CC(F)F)c23)c([C@H](Cc2cc(F)cc(F)c2)NC(=O)Cn2nc(C(F)F)c3c2C(F)(F)[C@@H]2C[C@H]32)n1)S(=O)(=O)C1CC1", "study_system": "HIV-IIIb", "reading_unit": "%", "inhibition at 0.01 µM": 94}
{"smiles_string": "Cn1nc(NS(C)(=O)=O)c2c(Cl)ccc(-c3ccc(C#CC(C)(C)S(=O)(=O)C4CC4)nc3[C@H](Cc3cc(F)cc(F)c3)NC(=O)Cn3cnnn3)c21", "study_system": "HIV-IIIb", "reading_unit": "%", "inhibition at 0.01 µM": 96}
{"smiles_string": "Cn1nc(NS(C)(=O)=O)c2c(Cl)ccc(-c3ccc(C#CC(C)(C)S(=O)(=O)C4CC4)nc3[C@H](Cc3cc(F)cc(F)c3)NC(=O)Cn3cnnc3)c21", "study_system": "HIV-IIIb", "reading_unit": "%", "inhibition at 0.01 µM": 0}
{"smiles_string": "Cn1nc(NS(C)(=O)=O)c2c(Cl)ccc(-c3ccc(C#CC(C)(C)S(=O)(=O)C4CC4)nc3[C@H](Cc3cc(F)cc(F)c3)NC(=O)Cn3cnc4ccccc43)c21", "study_system": "HIV-IIIb", "reading_unit": "%", "inhibition at 0.01 µM": 56}
{"smiles_string": "Cn1nc(NS(C)(=O)=O)c2c(Cl)ccc(-c3ccc(C#CC(C)(C)S(=O)(=O)C4CC4)nc3[C@H](Cc3cc(F)cc(F)c3)NC(=O)Cn3nnc4ccccc43)c21", "study_system": "HIV-IIIb", "reading_unit": "%", "inhibition at 0.01 µM": 1}
{"smiles_string": "Cn1nc(NS(C)(=O)=O)c2c(Cl)ccc(-c3ccc(C#CC(C)(C)S(=O)(=O)C4CC4)nc3[C@H](Cc3cc(F)cc(F)c3)NC(=O)Cn3nc(C(F)F)c(Br)c3C(F)F)c21", "study_system": "HIV-IIIb", "reading_unit": "%", "inhibition at 0.01 µM": 95}
{"smiles_string": "Cn1nc(Nc2nnc(C(F)F)o2)c2c(Cl)ccc(-c3ccc(C#CC(C)(C)S(=O)(=O)C4CC4)nc3[C@H](Cc3cc(F)cc(F)c3)NC(=O)Cn3nc(C(F)F)c4c3C(F)(F)[C@@H]3C[C@H]43)c21", "study_system": "HIV-IIIb", "reading_unit": "%", "inhibition at 0.01 µM": 99}
{"smiles_string": "Cn1nc(NS(=O)(=O)CC2CC2)c2c(Cl)ccc(-c3ccc(C#CC(C)(C)S(=O)(=O)C4CC4)nc3[C@H](Cc3cc(F)cc(F)c3)NC(=O)Cn3nc(C(F)(F)F)c4c3C(F)(F)[C@@H]3C[C@H]43)c21", "study_system": "HIV-IIIb", "reading_unit": "%", "inhibition at 0.01 µM": 98}
{"smiles_string": "CC(C)(C#Cc1ccc(-c2ccc(Cl)c3c(NS(C)(=O)=O)nn(CC(F)(F)F)c23)c([C@H](Cc2cc(F)cc(F)c2)NC(=O)Cn2nc(C(F)(F)F)c3c2C(F)(F)[C@@H]2C[C@H]32)n1)S(=O)(=O)C1CC1", "study_system": "HIV-IIIb", "reading_unit": "%", "inhibition at 0.01 µM": 100}
{"smiles_string": "CC(C)(C#Cc1ccc(-c2ccc(F)c3c(NS(=O)(=O)C4CC4)nn(CC(F)F)c23)c([C@H](Cc2cc(F)cc(F)c2)NC(=O)Cn2nc(C(F)(F)F)c3c2C(F)(F)[C@@H]2C[C@H]32)n1)S(=O)(=O)C1CC1", "study_system": "HIV-IIIb", "reading_unit": "%", "inhibition at 0.01 µM": 59}
{"smiles_string": "Cn1nc(NS(C)(=O)=O)c2c(Cl)ccc(-c3ccc(C#CC(C)(C)S(=O)(=O)C4CC4)nc3[C@H](Cc3cc(F)cc(F)c3)NC(=O)Cn3nc(C(F)F)cc3C(F)F)c21", "study_system": "HIV-IIIb", "reading_unit": "%", "inhibition at 0.01 µM": 87}
{"smiles_string": "CCS(=O)(=O)Nc1nn(CC(F)F)c2c(-c3ccc(C#CC(C)(C)S(=O)(=O)C4CC4)nc3[C@H](Cc3cc(F)cc(F)c3)NC(=O)Cn3nc(C(F)(F)F)c4c3C(F)(F)[C@@H]3C[C@H]43)ccc(Cl)c12", "study_system": "HIV-IIIb", "reading_unit": "%", "inhibition at 0.01 µM": 92}
{"smiles_string": "CC(C)(C#Cc1ccc(-c2ccc(Cl)c3c(NS(=O)(=O)CC4CC4)nn(CC(F)F)c23)c([C@H](Cc2cc(F)cc(F)c2)NC(=O)Cn2nc(C(F)(F)F)c3c2C(F)(F)[C@@H]2C[C@H]32)n1)S(=O)(=O)C1CC1", "study_system": "HIV-IIIb", "reading_unit": "%", "inhibition at 0.01 µM": 100}
{"smiles_string": "Cn1nc(Nc2nnc(C(C)(C)O)o2)c2c(Cl)ccc(-c3ccc(C#CC(C)(C)S(=O)(=O)C4CC4)nc3[C@H](Cc3cc(F)cc(F)c3)NC(=O)Cn3nc(C(F)(F)F)c4c3C(F)(F)[C@@H]3C[C@H]43)c21", "study_system": "HIV-IIIb", "reading_unit": "%", "inhibition at 0.01 µM": 100}
